Each recorded value in this set is attributed to the supplement of paper PMC10127200.

system: OVCAR4; test: Euclidean distance of Cell Painting phenotypic profile (signed KS, 77 features) to DMSO centroid (dimensionless distance); 5 or 10 uM (library dependent); higher = stronger phenotypic change vs DMSO (phenoactivity); details: 48 h
Counter-ions that a name gives are not always drawn.
This listing pairs molecules with measured Euclidean distance.
readout: Euclidean distance

molecule=Cn1cc(C2=C(c3cccc(N)c3)C(=O)NC2=O)c2ccccc21 value=3.79
molecule=Cc1c(OCC(F)(F)F)ccnc1C[S@@+]([O-])c1nc2ccccc2[nH]1 value=1.1
molecule="O=C1OC(CN2CCOCC2)CN1/N=C/c1ccc([N+](=O)[O-])o1 (configuration not stated) [Furaltadone HCl]" value=2.22
molecule="C#CCN[C@@H]1CCc2ccccc21 [Rasagiline Mesylate]" value=1.18
molecule="O=C(O)CCNC(=O)c1ccc(/N=N/c2ccc(O)c(C(=O)O)c2)cc1 [Balsalazide disodium]" value=0.971
molecule=CN1CC[C@@H](NC(=O)Nc2ccc(C#N)cc2)C[C@@H]1c1nc2ccccc2[nH]1 value=1.73
molecule=CC[C@H]1OC(=O)[C@H](C)[C@@H](O[C@H]2C[C@@](C)(OC)[C@@H](O)[C@H](C)O2)[C@H](C)[C@@H](O[C@@H]2O[C@H](C)C[C@H](N(C)C)[C@H]2O)[C@](C)(O)C[C@@H](C)[C@@H]2N[C@@H](COCCOC)O[C@H]([C@H]2C)[C@]1(C)O value=1.41
molecule="Cc1cc(C)cc(OCC2CNC(=O)O2)c1 (configuration not stated)" value=1.15
molecule=Cc1nnc(SCC2=C(C(=O)O)N3C(=O)[C@@H](NC(=O)Cn4cc(Cl)c(=O)c(Cl)c4)[C@H]3SC2)s1 value=0.862
molecule=Cc1cnc(CNC(=O)c2c(=O)c3ccc(N4CCCN(C)CC4)nc3n3c2sc2ccccc23)cn1 value=3.31
molecule="CC(C(=O)O)c1ccc(-c2ccccc2)c(F)c1 (configuration not stated)" value=1.27
molecule="COc1ccc(C[C@H](N)C(=O)N[C@H]2[C@@H](O)[C@H](n3cnc4c(N(C)C)ncnc43)O[C@@H]2CO)cc1 [Puromycin 2HCl]" value=6

----------
test system: HEPG2; assay: Euclidean distance of Cell Painting phenotypic profile (signed KS, 77 features) to DMSO centroid (dimensionless distance); 5 or 10 uM (library dependent); higher = stronger phenotypic change vs DMSO (phenoactivity); details: 48 h
Structures can show the parent of a compound that is named as a salt.
readout: Euclidean distance

molecule=CCN1CCN(C(=O)N[C@@H](C(=O)N[C@@H]2C(=O)N3C(C(=O)O)=C(CSc4nnnn4C)CS[C@H]23)c2ccc(O)cc2)C(=O)C1=O target_or_test_system=HEPG2 value=0.854
molecule="COCCOC(=O)C1=C(C)NC(C)=C(C(=O)OC(C)C)C1c1cccc([N+](=O)[O-])c1 (stereo not drawn)" target_or_test_system=HEPG2 value=1.96
molecule=O=c1c(O)c(-c2ccc(O)c(O)c2)oc2cc(O)ccc12 target_or_test_system=HEPG2 value=0.906
molecule="CCCC(CCC)C(=O)O [Valproic acid sodium salt (Sodium valproate)]" target_or_test_system=HEPG2 value=0.677
molecule="CN1CCCC(n2nc(Cc3ccc(Cl)cc3)c3ccccc3c2=O)CC1 (stereo not drawn) [Azelastine HCl]" target_or_test_system=HEPG2 value=1.14
molecule=Cc1c(Cl)cccc1Nc1ncccc1C(=O)O target_or_test_system=HEPG2 value=0.606
molecule=CC(C)CN(C[C@@H](O)[C@H](Cc1ccccc1)NC(=O)O[C@H]1CCOC1)S(=O)(=O)c1ccc(N)cc1 target_or_test_system=HEPG2 value=1.26
molecule="CC(=O)OCC(=O)[C@@]1(O)CC[C@H]2[C@@H]3CCC4=CC(=O)CC[C@]4(C)[C@H]3[C@@H](O)C[C@@]21C [Hydrocortisone acetate]" target_or_test_system=HEPG2 value=1.05
